Hey, just so you know, these numbers are from ChEMBL document CHEMBL3988442.

Test system: Mycobacterium tuberculosis
Experiment: Cornell - Phenotypic assay to identify agents that inhibit growth of Mycobacterium tuberculosis
Assay type: functional
Design: scale not given: direction of the effect not stated beside the values
Conditions: 10 mM as filed; unlikely as a test dose
About 900 (1.7%) of roughly 53,000 compounds showed an effect of 50% or more. The list comes from a sample in which strong results are over-represented; it also holds close analogues and randomly drawn compounds.
observable: Percent Effect (%)
Write down the numeric answer in % and omit the unit.

Before answering, review these 5 worked examples.
response.value for Cc1cccc(C2CCCCCN2Cc2cn(C)nc2C)c1 (stereo unspecified) (field: Percent Effect) = 15.03

response.value for Cc1[nH]ccc1C(=O)N1CCOCC12CCCC2 (field: Percent Effect) = 102.6

response.value for CCc1cc(O)n2nc(C3CCN(C(=O)c4ccccn4)CC3)cc2n1 (field: Percent Effect) = 37.19

response.value for COc1cccc(CN2CCCCCC2c2sccc2C)c1O (stereo unspecified) (field: Percent Effect) = 53.6

response.value for Cc1ccc(F)cc1C(=O)N1CCOCC12CCCC2 (field: Percent Effect) = 20.33

Next up:
response.value for O=C(c1cc(-n2cccn2)ccn1)N(CC1CCC1)CC(F)(F)F (field: Percent Effect) = 16.8

* * *

Tested on: Mycobacterium tuberculosis
Test: Cornell - Phenotypic assay to identify agents that inhibit growth of Mycobacterium tuberculosis
Format: functional
Parameters: scale not given: direction of the effect not stated beside the values
Conditions: 10 mM as filed; unlikely as a test dose
In all, about 53,000 compounds went through this assay and about 900 (1.7%) showed an effect of 50% or more. The entries come from a sample that favours strong results as a whole.
observable: Percent Effect (%)
Write down the numeric answer in % and omit the unit.

Before answering, review these 3 worked examples.
Entry Cc1nc(N)ncc1C(=O)N1CCCC1(C)C(=O)N(C)C (configuration not stated) , Mycobacterium tuberculosis data, Percent Effect value: 14.34

Entry Cn1nnnc1SC1CCc2ccccc2NC1=O (configuration not stated) , Mycobacterium tuberculosis data, Percent Effect value: 4.345

Entry COc1cc(NCc2ccncc2)c(-c2nn[nH]n2)cc1OC , Mycobacterium tuberculosis data, Percent Effect value: 96.19

Next up:
Entry CCOCC(=O)Nc1cc(-c2cccc(F)c2F)n[nH]1 , Mycobacterium tuberculosis data, Percent Effect value: 57.77

* * *

System: Mycobacterium tuberculosis
Test: Cornell - Phenotypic assay to identify agents that inhibit growth of Mycobacterium tuberculosis
Type: functional
Design: scale not given: direction of the effect not stated beside the values
Settings: 10 mM as filed; unlikely as a test dose
Among all 53,000 compounds or so, about 900 (1.7%) showed an effect of 50% or more. Only a selection was taken, and strong results are over-represented in it overall.
observable: Percent Effect (%)
Write down the numeric answer in % and omit the unit.

response.value for Cc1nc[nH]c1CN1CCCN(c2nc3ccccc3s2)CC1 (field: Percent Effect) = 3.174

response.value for Cc1noc(C)c1CN1CCC(c2nnc(Cn3cccn3)n2C)CC1 (field: Percent Effect) = 16.69

response.value for COCCN1C(=O)[C@H]2CC[C@@H]1CN(Cc1nnc(C3CC3)o1)C2 (field: Percent Effect) = -7.325

response.value for COc1ccc(CNC(=O)CNc2cc3c(cc2Cl)OCCO3)cc1 (field: Percent Effect) = -25.81

response.value for O=C1NC2(CCc3ccccc31)CCN(C(=O)c1ccncc1)C2 (stereo not drawn) (field: Percent Effect) = 9.772

New cases:
response.value for N#Cc1ncn(CCC(=O)Nc2ccc(Cl)cc2F)n1 (field: Percent Effect) = 105.4

response.value for Cc1cc(C(=O)N2CCN(c3nc4ccccc4s3)CC2)no1 (field: Percent Effect) = -60.39

response.value for COc1cccc2cc(CNCc3ccnc(N4CCOCC4)c3)oc12 (field: Percent Effect) = -7.276

* * *

System: Mycobacterium tuberculosis
Experiment: Cornell - Phenotypic assay to identify agents that inhibit growth of Mycobacterium tuberculosis
Format: functional
Parameters: scale not given: direction of the effect not stated beside the values
Conditions: 10 mM as filed; unlikely as a test dose
Screen size: about 53,000 compounds; about 900 (1.7%) showed an effect of 50% or more. Shown is part of a subset that was picked to be rich in strong results.
observable: Percent Effect (%)
Write down the numeric answer in % and omit the unit.

response.value for CNC(=O)CN1CCC(CN(C)CCSc2ccccc2)CC1 (field: Percent Effect) = 4.331

response.value for CC[C@@H]1N(CC2CC2)CCC[C@]12CCC(=O)N2CCOC.O=C(O)C(F)(F)F (field: Percent Effect) = 52.28

response.value for CC[C@@H]1N(Cc2ccsc2)CCC[C@]12CCC(=O)N2CCOC.O=C(O)C(F)(F)F (field: Percent Effect) = 13.62

response.value for CCCC(O)CN1CC(C)(C)CN(C(=O)c2ccccc2)CC1=O (stereo not given) (field: Percent Effect) = 6.323

response.value for Cc1cnn(C2CCCN(C(=O)c3ccnc(-n4cncn4)c3)C2)c1 (stereo not given) (field: Percent Effect) = -11.26

response.value for O=C(O)c1ccc(S(=O)(=O)Nc2c(F)cccc2-n2cccn2)cc1 (field: Percent Effect) = 7.087

New cases:
response.value for COc1cc(C2Nc3cc(Cl)ccc3C3=NCCN32)cc(OC)c1OC (stereo not given) (field: Percent Effect) = -27.36

response.value for CCc1ccc(-c2ncc3c(n2)N(C)CCN(CCN(C)C)C3=O)cc1 (field: Percent Effect) = 13.52

response.value for Cc1nc(N[C@H]2COC[C@@H]2N2CCCC2)c2cnn(C)c2n1 (field: Percent Effect) = 2.791

response.value for Cc1ccccc1CN1C[C@@H](C(=O)N2CCCCO2)C[C@H]2OCC[C@H]21.O=C(O)C(F)(F)F (field: Percent Effect) = 19.61

* * *

The entries below come with measured Percent Effect values attached.
Test system: Mycobacterium tuberculosis
Assay: Cornell - Phenotypic assay to identify agents that inhibit growth of Mycobacterium tuberculosis
Type: functional
Set-up: scale not given: direction of the effect not stated beside the values
Settings: 10 mM as filed; unlikely as a test dose
The whole screen tested about 53,000 compounds, of which about 900 (1.7%) showed an effect of 50% or more. Shown is part of a subset that was picked to be rich in strong results.
Write down the numeric answer in % and omit the unit.

response.value for Nc1cc(N2CCCC(COc3ccc(F)cc3)C2)nc(N)n1 (stereo unspecified) (field: Percent Effect) = -4.088

response.value for Cc1nnc(SCC(=O)c2cc3c(cc2Cl)NC(=O)C3)o1 (field: Percent Effect) = 14.6

response.value for CCCS(=O)(=O)N1CCC2(CC1)CN(CC1CCOC1)c1ccccc12.O=C(O)C(F)(F)F (stereo unspecified) (field: Percent Effect) = 53.88

response.value for CNc1ncc2c(n1)CN(CCc1ccc(Cl)cc1)C2=O (field: Percent Effect) = 6.698

response.value for CC(C)c1nc2oc(C(=O)N3CCOCC3)c(N)c2c2c1CCCC2 (field: Percent Effect) = 5.641

response.value for Cc1nc(CN2CCCN(C(=O)CC(C)n3cccc3)CC2)cs1 (stereo unspecified) (field: Percent Effect) = 7.748

* * *

Test system: Mycobacterium tuberculosis
Assay: Cornell - Phenotypic assay to identify agents that inhibit growth of Mycobacterium tuberculosis
Format: functional
Design: scale not given: direction of the effect not stated beside the values
Conditions: 10 mM as filed; unlikely as a test dose
Out of some 53,000 compounds screened, about 900 (1.7%) showed an effect of 50% or more. For the sample, strong results were picked, then their nearest neighbours and some compounds at random.
observable: Percent Effect (%)
Write down the numeric answer in % and omit the unit.

Before answering, review these 10 worked examples.
response.value for CCn1cc2c(n1)CN(Cc1sccc1C)CC2COCC1CC1.O=C(O)C(F)(F)F (stereo not drawn) (field: Percent Effect) = 57.43

response.value for Cc1oc(C)c(C(=O)NS(=O)(=O)c2ccc3c(c2)OCCCO3)c1C (field: Percent Effect) = 58.42

response.value for Cc1ccc(C(=O)N2CC(Oc3ccccc3C)C2)s1 (field: Percent Effect) = 67.58

response.value for COc1c(CNCc2nnc3n2CCCCC3)c(C)nn1C.Cl (field: Percent Effect) = 31.65

response.value for CN(Cc1ccco1)[C@@H]1CN(Cc2cccs2)C[C@@H]2CCCO[C@@H]21.O=C(O)C(F)(F)F.O=C(O)C(F)(F)F (field: Percent Effect) = 3.22

response.value for c1cc(C2CCN(c3cnccn3)CC2)ncn1 (field: Percent Effect) = 5.379

response.value for COc1ccccc1NCc1cscn1.Cl (field: Percent Effect) = 16.2

response.value for O=C(c1cc(C2CCCC2)no1)N1CC(O)C1 (field: Percent Effect) = 18.4

response.value for COCC1CN(Cc2ccc(F)cc2)Cc2nn(C)cc21.O=C(O)C(F)(F)F (stereo not drawn) (field: Percent Effect) = 21.43

response.value for COCC1CN(Cc2ccc(OC)cc2)Cc2nn(C)cc21.O=C(O)C(F)(F)F (stereo not drawn) (field: Percent Effect) = 102.7

New cases:
response.value for Cc1csc(C(C)(C)NCCOc2ccc(CC#N)cc2)n1 (field: Percent Effect) = -14.48

response.value for O=C(N1CCCC1)N1C[C@@H](OCc2cccnc2)[C@H]2OCCC[C@H]21.O=C(O)C(F)(F)F (field: Percent Effect) = 12.95

response.value for CC(C)NC1CCN(CCc2ccc3c(c2)CCO3)CC1 (field: Percent Effect) = 56.74

response.value for Cc1cnn(CC2CCCCN2C(=O)c2ccc3nncn3c2)c1 (stereo not drawn) (field: Percent Effect) = -11.21

response.value for CN(C)c1nccnc1C1CCN(c2cnccn2)CC1 (field: Percent Effect) = 17.38

response.value for Cc1nn(C)c(N(C)C)c1CNCc1nnc2n1CCCCC2.Cl (field: Percent Effect) = 67.58

response.value for CC(C)(C)Oc1ccncc1NCc1cscn1 (field: Percent Effect) = 55.35

response.value for CN1C[C@H](O)[C@]2(CCN(Cc3ccc(OC(F)(F)F)cc3)C2)S1(=O)=O (field: Percent Effect) = 30.47

response.value for Cc1cnn(CC2CCCN2C(=O)c2ccc3nnc(C)n3c2)c1 (stereo not drawn) (field: Percent Effect) = 107.3
